All values here come from patent US20090111801A1.

Molecular target: hα2C receptor (Homo sapiens)
Construct: expressed in transfected cells; host or cells: CHO cells, stably transfected; membrane preparation
Sequence (P18825 1-462): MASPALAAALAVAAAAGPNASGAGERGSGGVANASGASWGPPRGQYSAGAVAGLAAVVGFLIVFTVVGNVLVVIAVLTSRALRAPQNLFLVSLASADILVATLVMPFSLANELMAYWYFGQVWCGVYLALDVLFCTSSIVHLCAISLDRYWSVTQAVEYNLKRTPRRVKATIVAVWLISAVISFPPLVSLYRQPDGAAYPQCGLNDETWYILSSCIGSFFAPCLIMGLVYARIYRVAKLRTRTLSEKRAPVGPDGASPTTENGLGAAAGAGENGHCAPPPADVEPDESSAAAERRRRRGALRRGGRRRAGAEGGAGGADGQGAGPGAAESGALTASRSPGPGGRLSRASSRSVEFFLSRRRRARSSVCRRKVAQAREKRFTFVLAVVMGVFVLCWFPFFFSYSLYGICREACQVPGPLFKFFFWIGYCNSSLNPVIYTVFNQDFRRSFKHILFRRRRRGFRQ
Test: Radioligand binding experiment for α2C-adrenoceptor ([3H]raulwolscine, CHO cell membranes)
Conditions: [3H]raulwolscine binding, read-out: h-α2C pIC50 (converted)
result type: IC50 (nM)

| compound | measurement units | IC50 |
| --- | --- | --- |
| C/C(=C\c1ccccc1)CN1CCC(Nc2nccn(Cc3ccccc3F)c2=O)CC1 [5-11] | nM | 31.6 |
| COc1ccc(NC(=O)Cn2ccnc(NC3CCN(C/C(C)=C/c4ccccc4)CC3)c2=O)cc1 [1-63] | nM | 12.6 |
| C/C(=C\c1ccccc1)CN1CCC(Nc2nccn(-c3ccc(NC(=O)Cc4ccccc4)cc3)c2=O)CC1 [1-81] | nM | 25.1 |
| C/C(=C\c1ccccc1)CN1CCC(Nc2nccn(CCCNS(C)(=O)=O)c2=O)CC1 [1-155] | nM | 20 |
| C/C(=C\c1ccccc1)CN1CCC(N(C)c2nccn(CC3CCCCO3)c2=O)CC1 (stereo not drawn) [15-7] | nM | 39.8 |

[1] CCc1ccc(-n2ccnc(NC3CCN(C/C(C)=C/c4ccccc4)CC3)c2=O)cc1 [5-4]
[2] C/C(=C\c1ccccc1)CN1CCC(Nc2nccn(Cc3ccc(C#N)cc3)c2=O)CC1 [5-20]
Incoming: Hi, I'm comparing two records. Which one has the lower IC50, 1 or 2 ? Response format: the label of the selected entry.
Outgoing: 1

* * *

Molecular target: hα2C receptor (Homo sapiens)
Construct: expressed in transfected cells; host or cells: CHO cells, stably transfected; membrane preparation
Test: Radioligand binding experiment for α2C-adrenoceptor ([3H]raulwolscine, CHO cell membranes)
Conditions: [3H]raulwolscine binding, read-out: h-α2C pIC50 (converted)
result type: IC50 (nM)

| compound | endpoint value |
| --- | --- |
| C/C(=C\c1ccccc1)CN1CCC(Nc2nccn(Cc3ccc(CN)cc3)c2=O)CC1 [1-6] | 2.51 |
| CCN(CC)c1cccc(-n2ccnc(NC3CCN(C/C(C)=C/c4ccccc4)CC3)c2=O)c1 | 1.58 |
| C/C(=C\c1ccccc1)CN1CCC(Nc2nccn(CC(=O)N(C)c3ccccc3)c2=O)CC1 | 3.16 |
| CCCn1ccnc(NC2CCN(C/C(C)=C/c3ccccc3)CC2)c1=O | 12.6 |
| CC(C)(C)C(=O)Cn1ccnc(NC2CCN(C/C=C/c3ccccc3)CC2)c1=O | 158 |

[a] C/C(=C\c1ccccc1)CN1CCC(Nc2nccn(-c3ccc(C(=O)N(CCN(C)C)Cc4ccccc4)cc3)c2=O)CC1
[b] C/C(=C\c1ccccc1)CN1CCN(c2nccn(CCCc3ccccc3)c2=O)CC1
Incoming: Hi, I'm comparing two records. Which one has the lower IC50, a or b ? Response format: the label of the selected entry.
Outgoing: a

* * *

Target: hα2A receptor (Homo sapiens)
Construct: expressed in transfected cells; host or cells: CHO cells, stably transfected; membrane preparation
Assay: Radioligand binding experiment for α2A-adrenoceptor ([3H]raulwolscine, CHO cell membranes)
Conditions: [3H]raulwolscine binding, read-out: h-α2A pIC50 (converted)
result type: IC50 (nM)

| chemical structure | result type | measurement units | endpoint value |
| --- | --- | --- | --- |
| O=c1c(NC2CCN(C/C=C/c3ccccc3)CC2)nccn1Cc1ccncc1 | IC50 | nM | 2000 |
| C/C(=C\c1ccccc1)CN1CCC(Nc2nccn(-c3ccc(NC(=O)Nc4ccc(F)cc4)cc3)c2=O)CC1 | IC50 | nM | 200 |
| C/C(=C\c1ccccc1)CN1CCC(Nc2nccn(-c3ccc(C=O)cc3)c2=O)CC1 | IC50 | nM | 39.8 |
| COC(=O)Cn1ccnc(NC2CCN(C/C(C)=C/c3ccccc3)CC2)c1=O | IC50 | nM | 100 |
| C/C(=C\c1ccccc1)CN1CCC(Nc2nccn(-c3ccc(C(=O)N(CCN(C)C)Cc4ccccc4)cc3)c2=O)CC1 | IC50 | nM | 39.8 |

[I] C/C(=C\c1ccccc1)CN1CCC(Nc2nccn(Cc3ccc(C(F)(F)F)cc3)c2=O)CC1
[II] C/C(=C\c1ccccc1)CN1CCC(Nc2nccn(CCCNc3ccccc3)c2=O)CC1
Incoming: Field: entry with larger IC50 (options I / II ). Response format: the label of the selected entry.
Outgoing: I

* * *

Target: hα2A receptor (Homo sapiens)
Construct: expressed in transfected cells; host or cells: CHO cells, stably transfected; membrane preparation
Assay: Radioligand binding experiment for α2A-adrenoceptor ([3H]raulwolscine, CHO cell membranes)
Conditions: [3H]raulwolscine binding, read-out: h-α2A pIC50 (converted)
result type: IC50 (nM)

As a guide, the following entries are already answered.
| compound | IC50 (nM) |
| --- | --- |
| C/C(=C\c1ccccc1)CN1CCC(Nc2nccn(CC3CCCCC3)c2=O)CC1 | 200 |
| C/C(=C\c1ccccc1)CN1CCC(Nc2nccn(-c3cccnc3)c2=O)CC1 | 251 |

[A] C/C(=C\c1ccccc1)CN1CCN(c2nccn(Cc3csc(C)n3)c2=O)CC1
[B] COC(=O)c1ccc(Cn2ccnc(NC3CCN(C/C(C)=C/c4ccccc4)CC3)c2=O)cc1
[C] C/C(=C\c1ccccc1)CN1CCC(Nc2nccn(CC#CCN3C(=O)c4ccccc4C3=O)c2=O)CC1 [2-54]
Incoming: Write the entries in order, lowest recorded IC50 first. Sort the labels as requested; that list is your answer.
Outgoing: B, C, A

* * *

Target: hα2A receptor (Homo sapiens, UniProt P08913)
Construct: expressed in transfected cells; host or cells: CHO cells, stably transfected; membrane preparation
Sequence (P08913 1-465): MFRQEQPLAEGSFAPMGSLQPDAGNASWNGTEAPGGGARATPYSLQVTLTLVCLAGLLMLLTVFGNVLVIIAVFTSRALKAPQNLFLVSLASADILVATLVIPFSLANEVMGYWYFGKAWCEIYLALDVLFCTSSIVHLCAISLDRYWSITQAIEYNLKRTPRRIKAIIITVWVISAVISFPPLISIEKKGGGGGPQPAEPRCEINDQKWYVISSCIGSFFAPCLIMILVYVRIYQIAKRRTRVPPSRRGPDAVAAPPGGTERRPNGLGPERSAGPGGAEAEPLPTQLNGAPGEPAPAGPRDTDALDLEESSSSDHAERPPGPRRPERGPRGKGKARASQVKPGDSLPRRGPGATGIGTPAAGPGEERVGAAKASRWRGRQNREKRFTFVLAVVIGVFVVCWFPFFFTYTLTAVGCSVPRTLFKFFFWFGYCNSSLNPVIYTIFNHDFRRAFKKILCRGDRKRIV
Experiment: Radioligand binding experiment for α2A-adrenoceptor ([3H]raulwolscine, CHO cell membranes)
Settings: [3H]raulwolscine binding, read-out: h-α2A pIC50 (converted)
Procedure: The interaction of a compound of Formula (I) with α2-adrenoceptor receptors was assessed in in vitro radioligand binding experiments. […] When equilibrium of binding is reached, the receptor bound radioactivity is separated from the non-bound radioactivity, and the receptor- or transporter-bound activity is counted. The interaction of the test compounds with the receptor is assessed in competition binding experiments. […]
result type: IC50 (nM)

| molecule | result type | endpoint value |
| --- | --- | --- |
| C/C(=C\c1ccccc1)CN1CCC(Nc2nccn(CCCN3C(=O)c4ccccc4C3=O)c2=O)CC1 | IC50 | 31.6 |

[P] C/C(=C\c1ccccc1)CN1CCC(Nc2nccn(CC#CCN3C(=O)c4ccccc4C3=O)c2=O)CC1 [2-53]
[Q] COCCN(C)Cc1cccc(-n2ccnc(NC3CCN(C/C(C)=C/c4ccccc4)CC3)c2=O)c1
[R] COCCn1ccnc(NC2CCN(C/C=C/c3ccccc3)CC2)c1=O
Incoming: Write the entries in order, lowest recorded IC50 first. Sort the labels as requested; that list is your answer.
Outgoing: Q, P, R
(Q: 5.01 nM, P: 200 nM, R: 3160 nM)

* * *

Target: 5HT-Transporter (Homo sapiens, UniProt P31645)
Construct: Human platelet membranes (Oceanix Biosciences Corporation, Hanover, Md., USA) were thawed; tissue Oceanix Biosciences Corporation, Hanover, Md., USA; host or cells: human platelet membranes
Sequence (P31645 whole entry): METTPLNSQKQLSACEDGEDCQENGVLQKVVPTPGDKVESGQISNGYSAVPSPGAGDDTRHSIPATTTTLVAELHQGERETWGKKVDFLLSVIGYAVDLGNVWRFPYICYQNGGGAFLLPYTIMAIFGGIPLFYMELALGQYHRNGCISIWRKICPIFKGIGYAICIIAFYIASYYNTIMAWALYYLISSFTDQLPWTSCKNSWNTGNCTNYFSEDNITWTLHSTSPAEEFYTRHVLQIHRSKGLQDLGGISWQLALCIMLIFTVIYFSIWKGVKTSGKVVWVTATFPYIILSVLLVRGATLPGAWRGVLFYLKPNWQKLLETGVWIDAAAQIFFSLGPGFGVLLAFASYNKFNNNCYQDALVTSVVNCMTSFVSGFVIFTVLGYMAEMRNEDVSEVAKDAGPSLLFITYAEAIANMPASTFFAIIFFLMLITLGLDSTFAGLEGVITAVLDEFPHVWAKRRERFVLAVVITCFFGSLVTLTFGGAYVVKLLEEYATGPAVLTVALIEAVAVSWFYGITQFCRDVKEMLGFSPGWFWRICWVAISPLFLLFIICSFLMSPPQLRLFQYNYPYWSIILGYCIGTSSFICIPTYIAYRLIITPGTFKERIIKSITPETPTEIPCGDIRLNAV
Assay: Binding experiment for the 5HT-transporter ([3H]paroxetine, human platelet membranes)
Details: [3H]paroxetine 0.5 nM, read-out: h-5HTT pIC50 (converted)
result type: IC50 (nM)

| molecule | result type | endpoint value |
| --- | --- | --- |
| C/C(=C\c1ccccc1)CN1CCC(Nc2nccn(Cc3ccc(C)cc3)c2=O)CC1 | IC50 | 1000 |

[A] C/C(=C\c1ccccc1)CN1CCC(Nc2nccn(CCCN(Cc3ccccc3)C(=O)CC3CCCC3)c2=O)CC1
[B] C/C(=C\c1ccccc1)CN1CCC(Nc2nccn(CCCN(C)C)c2=O)CC1 [1-15]
[C] C/C(=C\c1ccccc1)CN1CCC(Nc2nccn(-c3ccc(CN(C)CCN(C)C)cc3)c2=O)CC1
Incoming: Write the entries in order, lowest recorded IC50 first. Sort the labels as requested; that list is your answer.
Outgoing: C, A, B
